MIC80 values for the molecules below.
# Tested on: Aspergillus fumigatus
# protocolDetails: in vitro antifungal activity (MIC80), Aspergillus fumigatus
# Type: cell-based
# conditionSet: 80% growth inhibition vs negative control, RPMI 1640, read 48 hrs after application
observationType: MIC80

1) C[C@@H](N1CCC(Oc2ncc(Br)cn2)CC1)[C@](O)(Cn1cncn1)c1ccc(F)cc1F [Example 32] = ≤ 0.125 µg/mL
2) OC(Cn1cncn1)(Cn1cncn1)c1ccc(F)cc1F [Fluconazole, reference compound] = > 128 µg/mL
3) C[C@@H](N1CCC(Oc2ccc(F)cc2)CC1)[C@](O)(Cn1cncn1)c1ccc(F)cc1F [Example 1] = ≤ 0.125 µg/mL
4) C[C@@H](N1CCC(Oc2ccc(Cl)cc2)CC1)[C@](O)(Cn1cncn1)c1ccc(F)cc1F [Example 7] = ≤ 0.125 µg/mL
5) C[C@@H](N1CCC(Nc2ccc(Cl)cc2)CC1)[C@](O)(Cn1cncn1)c1ccc(F)cc1F [Example 34] = ≤ 0.125 µg/mL
